Record form. Attribute: pIC50. Fill in for each entry.
# TARGET_ENTITY: IL-17A-IL-17RA binding (Homo sapiens)
# Construct: human IL-17RA-Fc (extracellular domain 1-322 AA fused with Fc region of human IgG1 at the C-terminus); purchased Sino Biological Inc
# Sequence (Q96F46 33-322): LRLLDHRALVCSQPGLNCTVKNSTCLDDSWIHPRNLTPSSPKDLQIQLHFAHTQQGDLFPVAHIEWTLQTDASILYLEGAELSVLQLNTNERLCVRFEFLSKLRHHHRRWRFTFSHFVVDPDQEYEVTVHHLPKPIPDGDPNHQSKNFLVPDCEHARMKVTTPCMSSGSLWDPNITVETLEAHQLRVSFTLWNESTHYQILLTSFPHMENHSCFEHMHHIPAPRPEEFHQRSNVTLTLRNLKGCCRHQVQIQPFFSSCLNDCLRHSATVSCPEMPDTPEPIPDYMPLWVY
# PROTOCOL_SUMMARY: IL-17A-IL-17RA binding assay (ELISA)
# CONDITION_CONTEXT: in vitro inhibition assay; read-out: IC50, IL-17A-IL-17RA binding assay
pIC50: −log10 of the molar value.

MOLECULE	RECORDED_MEASUREMENT
Oc1ccc(-c2[o+]c3cc(O)cc(O)c3cc2O)cc1 [pelargonidin, reference compound]	< 4.00

Now look at this one.
The measured pIC50 associated with Oc1ccc2cc(O)c(-c3ccc(O)c(O)c3)[o+]c2c1 reads < 4.52
